Would you kindly list EC50 for each of these compounds?
# target-or-test-system: Kappa-type opioid receptor (Homo sapiens)
# Sequence (P41145 whole entry): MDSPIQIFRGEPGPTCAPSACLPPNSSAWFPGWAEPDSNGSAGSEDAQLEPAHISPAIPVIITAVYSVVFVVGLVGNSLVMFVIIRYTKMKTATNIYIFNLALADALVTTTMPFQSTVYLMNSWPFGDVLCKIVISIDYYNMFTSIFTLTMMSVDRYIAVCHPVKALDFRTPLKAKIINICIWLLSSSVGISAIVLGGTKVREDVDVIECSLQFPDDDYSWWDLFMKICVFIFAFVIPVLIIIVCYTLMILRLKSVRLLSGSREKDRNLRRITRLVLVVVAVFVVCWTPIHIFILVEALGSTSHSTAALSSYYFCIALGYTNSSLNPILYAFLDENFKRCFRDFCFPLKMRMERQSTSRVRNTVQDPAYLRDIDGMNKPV
# test-name: Agonist activity at KOR (unknown origin) expressed in HEK cells assessed as reduction in cAMP accumulation by split luciferase assay
*1 amine or outer side, *2 acyl side, *3 side chain or, on linkers, in order; H or OH if unused. Where a SMILES comes first, the peptide text is derived from it. Bridges are numbered along the chain shown (N, C = ends). Roman numbers before positions name the chains, in order. [ ]: non-standard residue; d: D form. Piperazine(1,4-diyl) = C1CN([*:2])CCN1[*:1]; Dmt = Cc1cc(O)cc(C)c1C[C@H](N)C(=O)O; Cystamine = C(CSSCCN[*:2])N[*:1]
Output spec: scalar in µM, unitless text.

Recorded EC50 of N[C@@H](Cc1ccc(O)cc1)C(=O)N[C@@H]1CSSC[C@@H](NC(=O)[C@@H](N)Cc2ccc(O)cc2)C(=O)NCC(=O)N[C@@H](Cc2ccccc2)C(=O)NCCSSCCNC(=O)[C@H](Cc2ccccc2)NC(=O)CNC1=O (HELM PEPTIDE1{Y.[dC].G.F}|PEPTIDE2{Y.[dC].G.F}|CHEM1{[C(CSSCCN[*:2])N[*:1]]}$PEPTIDE1,PEPTIDE2,2:R3-2:R3|PEPTIDE1,CHEM1,4:R2-1:R1|PEPTIDE2,CHEM1,4:R2-1:R2$$$V2.0) , please.
0.135

Give its EC50 value. Item: N[C@@H](Cc1ccc(O)cc1)C(=O)N[C@@H]1CSSC[C@@H](NC(=O)[C@@H](N)Cc2ccc(O)cc2)C(=O)NCC(=O)N[C@@H](Cc2ccccc2)C(=O)N2CCN(CC2)C(=O)[C@H](Cc2ccccc2)NC(=O)CNC1=O (HELM PEPTIDE1{Y.[dC].G.F}|PEPTIDE2{Y.[dC].G.F}|CHEM1{[C1CN([*:2])CCN1[*:1]]}$PEPTIDE1,PEPTIDE2,2:R3-2:R3|PEPTIDE1,CHEM1,4:R2-1:R1|PEPTIDE2,CHEM1,4:R2-1:R2$$$V2.0)
0.339

I'd like to know its EC50. The compound in question is Cc1cc(O)cc(C)c1C[C@H](N)C(=O)N[C@@H]1CSSC[C@@H](NC(=O)[C@@H](N)Cc2c(C)cc(O)cc2C)C(=O)NCC(=O)N[C@@H](Cc2ccccc2)C(=O)NCCSSCCNC(=O)[C@H](Cc2ccccc2)NC(=O)CNC1=O (I: H-[Dmt][dC]GF / II: H-[Dmt][dC]GF; disulfide I:2-II:2; linker I:C-II:C via Cystamine)
0.0135

Return reported EC50; argument: Cc1cc(O)cc(C)c1C[C@H](N)C(=O)N[C@@H]1CSSC[C@@H](NC(=O)[C@@H](N)Cc2c(C)cc(O)cc2C)C(=O)NCC(=O)N[C@@H](Cc2ccccc2)C(=O)N2CCN(CC2)C(=O)[C@H](Cc2ccccc2)NC(=O)CNC1=O (I: H-[Dmt][dC]GF / II: H-[Dmt][dC]GF; disulfide I:2-II:2; linker I:C-II:C via Piperazine(1,4-diyl))
0.0631
